Every entry's value here was drawn from patent US8859578B2.

tested on: P. falciparum TM6; test: In vitro blood stage antimalarial activity, [3H]hypoxanthine uptake; assay type: cell-based; conditions: Plasmodium falciparum
value-kind: pIC50
Lab note: report pIC50 as minus log10 of the concentration in molar units, number only.

Return reported pIC50 for target or system P. falciparum TM6, item CCN(CC)CCCC(C)Nc1ccnc2cc(Cl)ccc12 (stereo not shown) [Chloroquine, reference compound] . 7.02

* * *

test system: Liver Stage of P. yoelii yoelii; experiment: In vitro liver-stage antimalarial efficacy; assay type: cell-based; conditions: Plasmodium yoelii
value-kind: pIC50
Lab note: report pIC50 as minus log10 of the concentration in molar units, number only.

COc1cc2c(c3cc4c(nc13)C=C[C@@]1([C@H]3CC([C@H](O)[C@@H](N)C(C)C)OCO3)C=CCOC41)[C@@H]1OCOC[C@]1(C)N2 (some centres unmarked) [Formula A] : 8.21

Output measured pIC50 for this item: COc1cc(NC(C)CCCN)c2ncccc2c1 (centres unmarked) [Primaquine, reference compound] 7.12
